system: MAP4K2; details: concentration: 1 μM, replicates: in singlicate; n = 1;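 further: KINOMEscan kinase panel screen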
# %Inh >= 10% gives Fulfilled, anything below gives Not fulfilled

Would you please look over these solved cases?
                                   compound            cat
0  N#CC1(c2cccc(C(=O)Nc3cccc(Oc4ccc5nc(NC(=O)C6CC6)sc5n4)c3)c2)CC1  Not fulfilled
1  O=C(Nc1n[nH]c2nc(-c3cccc(O)c3)ccc12)C1CC1 [SB-711805]  Not fulfilled
2  Cc1nn2c(=O)cc(N3CCO[C@H](C)C3)nc2n1Cc1cccc(Cl)c1Cl [GSK2373693]  Not fulfilled
3  Cc1cccc(Nc2nc(N[C@H]3CCCC[C@H]3N)ncc2C(N)=O)c1.Cl [GSK986310]      Fulfilled

// inclusive: %Inh at least 10%? input: COc1cc(Nc2ccnc3cc(-c4ccncc4)ccc23)cc(OC)c1OC.Cl [GW494610]
Fulfilled

// inclusive: %Inh at least 10%? input: COC(=O)Nc1nc2ccc(Oc3ccc(NC(=O)Nc4cc(C(F)(F)F)ccc4F)cc3)cc2[nH]1.Cl [GW654607]
Not fulfilled

// inclusive: %Inh at least 10%? input: Cc1ccccc1CC(=O)N1CCc2cc(-c3cn(C)c4ncnc(N)c34)ccc21 [GSK2603346]
Fulfilled

// inclusive: %Inh at least 10%? input: CC(C)c1nc(-c2ccc(F)c(NS(=O)(=O)c3c(F)cccc3F)c2)c(-c2ccnc(Nc3ccc(N4CCOCC4)nc3)n2)s1 [GSK1804250]
Not fulfilled

// inclusive: %Inh at least 10%? input: O=C(Nc1n[nH]c2nc(-c3ccccc3O)ccc12)C1CC1 [SB-711880]
Not fulfilled
